I'd appreciate it if you could supply Percent Effect values for the items below.
species: Homo sapiens; experiment: To identify inhibition of the IFN signalling (Jak-Stat) pathway via expression of an eGFP reporter gene under the control of an IFN-stimulated response element (ISRE) containing MxA promoter.; assay type: functional; design: scale not given: direction of the effect not stated beside the values; details: 30 µM
Give just the number in %; leave the unit off.

input: Using the record for CN(C)CC1CN(Cc2ccsc2)Cc2nccn2C1 (stereo not drawn) , state its measured Percent Effect.
output: -9.26

input: Using the record for Cn1cc(CNCCn2cccn2)c(-c2cccnc2)n1 , state its measured Percent Effect.
output: -1.72

input: Using the record for Cc1ncc2c(n1)CN(CCCc1nc3ccccc3o1)CC2 , state its measured Percent Effect.
output: -14.7

====

I'd appreciate it if you could supply Percent Effect values for the items below.
target: Arginase-2, mitochondrial (Homo sapiens); test: in vitro enzyme assay to detect the production of urea directly proportional to the activity of Arginase II; type: functional; set-up: scale not given: in the data most compounds retested in dose-response had high values; settings: 33.3 µM

input: Using the record for c1ccc(CCNC2CCc3ncnn3C2)nc1 (stereo not drawn) , state its measured Percent Effect.
output: -1.84%

input: Using the record for CN(C)CC1CN(Cc2ccsc2)Cc2nccn2C1 (stereo not drawn) , state its measured Percent Effect.
output: 3.24%

input: Using the record for COc1ccc(N2CCC(C(=O)/N=c3/[nH]ccs3)CC2)nn1 , state its measured Percent Effect.
output: -13.9%

====

system: Trypanosoma cruzi; assay: Trypanosoma cruzi phosphomannomutase and mannose-1-phosphate guanylyltransferase assay; format: functional; parameters: scale not given: direction of the effect not stated beside the values; details: 10 µM
attribute.measured: Percent Effect (%)
Give just the number in %; leave the unit off.

input: Find Percent Effect for COCCN1C[C@@H]2CN(Cc3cccc(F)c3)CCC[C@]2(C(=O)O)C1 on Trypanosoma cruzi and write it down.
output: -4.24

input: Find Percent Effect for Cc1nsc(NC(=O)N2CCC(C(C)(C)O)CC2)n1 on Trypanosoma cruzi and write it down.
output: -8.11

input: Find Percent Effect for O=C(c1cn(-c2cc(N3CCSCC3)ncn2)cn1)N1CCSCC1 on Trypanosoma cruzi and write it down.
output: 6.27

====

I'd appreciate it if you could supply Percent Effect values for the items below.
target: Sialic acid-binding Ig-like lectin 9 (Homo sapiens) (UniProt Q9Y336); assay: Hs-Siglec9 ALPHAscreen SOP 20170721; parameters: scale not given: direction of the effect not stated beside the values; details: 10 µM
Sequence (Q9Y336 whole entry): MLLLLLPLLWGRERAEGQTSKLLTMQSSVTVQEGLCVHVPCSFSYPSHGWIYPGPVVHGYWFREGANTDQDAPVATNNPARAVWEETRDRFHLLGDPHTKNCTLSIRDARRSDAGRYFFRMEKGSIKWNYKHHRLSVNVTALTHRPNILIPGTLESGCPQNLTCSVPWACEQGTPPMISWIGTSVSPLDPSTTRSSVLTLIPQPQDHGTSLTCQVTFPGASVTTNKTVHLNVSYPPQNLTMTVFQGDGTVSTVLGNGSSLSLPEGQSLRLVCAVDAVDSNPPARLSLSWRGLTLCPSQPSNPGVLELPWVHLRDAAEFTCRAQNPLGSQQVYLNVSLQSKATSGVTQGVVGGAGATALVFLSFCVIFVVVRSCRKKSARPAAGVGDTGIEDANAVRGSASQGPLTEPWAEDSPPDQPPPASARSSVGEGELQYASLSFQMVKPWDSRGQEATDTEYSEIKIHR
Give just the number in %; leave the unit off.

input: Find Percent Effect for O=C(c1cc(Cl)c2c(c1)OCO2)N1CCCC(n2ccnc2)C1 (stereo not given) on Sialic acid-binding Ig-like lectin 9 (Homo sapiens) (UniProt Q9Y336) and write it down.
output: 3.84

input: Find Percent Effect for CCc1n[nH]c(C2CN(C(=O)c3ncoc3C(C)C)CCO2)n1 (stereo not given) on Sialic acid-binding Ig-like lectin 9 (Homo sapiens) (UniProt Q9Y336) and write it down.
output: 8.33

input: Find Percent Effect for Cc1nc(CN2CCN(Cc3nccn3C)CC2)no1 on Sialic acid-binding Ig-like lectin 9 (Homo sapiens) (UniProt Q9Y336) and write it down.
output: -1.66

input: Find Percent Effect for COc1cccc(C(=O)NCCCN2CCc3ccccc3C2)c1OC on Sialic acid-binding Ig-like lectin 9 (Homo sapiens) (UniProt Q9Y336) and write it down.
output: 7.23

input: Find Percent Effect for Cc1cc(C)cc(-c2cccc(CC3(C(=O)O)CCOCC3)c2)c1 on Sialic acid-binding Ig-like lectin 9 (Homo sapiens) (UniProt Q9Y336) and write it down.
output: 5.76

====

molecular target: Proteasome subunit beta (Trypanosoma cruzi) (UniProt O96673); assay: Trypanosoma cruzi proteasome chymotrypsin-like activity (TcProtChymo) assay.; format: functional; design: scale not given: in the data most compounds retested in dose-response had high values; conditions: 9.37 µM
Sequence (O96673 as listed by the source): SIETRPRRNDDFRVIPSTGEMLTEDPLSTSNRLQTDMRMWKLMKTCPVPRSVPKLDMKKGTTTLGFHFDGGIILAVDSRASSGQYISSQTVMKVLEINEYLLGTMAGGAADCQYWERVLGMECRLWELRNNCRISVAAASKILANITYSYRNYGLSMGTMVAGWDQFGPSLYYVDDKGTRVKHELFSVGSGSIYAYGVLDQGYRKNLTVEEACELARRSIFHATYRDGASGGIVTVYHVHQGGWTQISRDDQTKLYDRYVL
I'd appreciate it if you could supply Percent Effect values for the items below.

input: Using the record for CC(C)CN1CCN(C(=O)NCc2cccnc2-n2cccn2)CC1 , state its measured Percent Effect.
output: 10.4%

input: Using the record for Cn1cc(CN2CCOC3(CCCN(C(=O)c4ccco4)C3)C2)cn1 (stereo not given) , state its measured Percent Effect.
output: 5.49%

input: Using the record for Cc1cnn(CCNCc2nc(Cc3ccccc3)no2)c1 , state its measured Percent Effect.
output: 5.51%

input: Using the record for COCC1CN(S(C)(=O)=O)Cc2ncn(CC3CC3)c21 (stereo not given) , state its measured Percent Effect.
output: 14.2%

input: Using the record for CCn1c(NCc2ccco2)nc2c(C)nn(C)c2c1=O , state its measured Percent Effect.
output: 22.6%

====

I'd appreciate it if you could supply Percent Effect values for the items below.
species on record: Homo sapiens; assay: To identify inhibition of the IFN signalling (Jak-Stat) pathway via expression of an eGFP reporter gene under the control of an IFN-stimulated response element (ISRE) containing MxA promoter.; assay type: functional; design: scale not given: direction of the effect not stated beside the values; conditions: 30 µM
Give just the number in %; leave the unit off.

input: Using the record for CCc1ccc(NC(=O)C2OC(c3cccs3)=NN2C(C)=O)cc1 (stereo not drawn) , state its measured Percent Effect.
output: 14.4

input: Using the record for CCN1CCN(C2CCN(Cc3c(C)noc3C)CC2)C1=O , state its measured Percent Effect.
output: 3.4

input: Using the record for CC1CN(C)c2ccccc2CN1C(=O)CSc1ccncc1 (stereo not drawn) , state its measured Percent Effect.
output: 17.3

input: Using the record for CCc1nnsc1C(=O)N1CCCN(Cc2cnn(C)c2)CC1 , state its measured Percent Effect.
output: -10.1

input: Using the record for CCc1nc2n(n1)CC(Nc1cc(C)nc3ncnn13)CC2 (stereo not drawn) , state its measured Percent Effect.
output: 18.4

input: Using the record for CN(Cc1cccs1)C(=O)CN1CCCC1Cn1cncn1 (stereo not drawn) , state its measured Percent Effect.
output: -3.55

input: Using the record for C1CC(CN2CCO[C@H]3[C@H](OCC4CC4)CC[C@@H]32)CCO1 , state its measured Percent Effect.
output: 7.72

input: Using the record for Cc1ccc(OCCC(=O)N2CCN(c3cnccn3)CC2)cc1C , state its measured Percent Effect.
output: 16.1

input: Using the record for CCN1CC2(CC1=O)CN(Cc1cnn(C)c1)CCN(C(=O)C(C)C)C2 (stereo not drawn) , state its measured Percent Effect.
output: 8.39

input: Using the record for O=C(NCc1nnc2n1CCCC2)N(Cc1ccccc1F)C1CC1 , state its measured Percent Effect.
output: 7.52

input: Using the record for CCN(CC)S(=O)(=O)N1CCCC(c2cccc(C(=O)O)c2)C1 (stereo not drawn) , state its measured Percent Effect.
output: 5.56

input: Using the record for CN(CC1COc2ccccc2O1)C(=O)NCCCn1cncn1 (stereo not drawn) , state its measured Percent Effect.
output: 8.47

input: Using the record for COC[C@@]12CC[C@@H](N3CCOCC3)C[C@H]1CCN(c1ncccn1)C2 , state its measured Percent Effect.
output: 0.0489

input: Using the record for CCC(CNC(=O)c1ccc(Br)o1)N1CCc2ccccc2C1 (stereo not drawn) , state its measured Percent Effect.
output: 11.9

input: Using the record for COc1cc2nc(C)n(CC(=O)NCCCN(C)C)c(=O)c2cc1OC , state its measured Percent Effect.
output: 12.2

input: Using the record for Cc1c(O)oc(-c2ccc(Br)cc2)nc1=O , state its measured Percent Effect.
output: 12.7

input: Using the record for O=S(=O)(Nc1cnn(C2CCOCC2)c1)c1ccc2c(c1)CCO2 , state its measured Percent Effect.
output: 13

input: Using the record for CCN1CCC(NC(=O)CN2CCCC2Cn2cncn2)CC1 (stereo not drawn) , state its measured Percent Effect.
output: 4.26

====

molecular target: AMP-activated protein kinase, AMPK (Homo sapiens) (UniProt P54646+O43741+P54619+Q9UGJ0+Q9Y478+Q13131+Q9UGI9); test: AMP-dependent Kinase enzyme assay. An in vitro enzyme assay that detects ADP turnover that is directly proportional to AMPK activity. This uses naive AMPK that is activated during the assay with MK-8722; type: functional; design: scale not given: direction of the effect not stated beside the values; conditions: 30 µM
attribute.measured: Percent Effect (%)
Give just the number in %; leave the unit off.

input: Using the record for CCNC(=O)N1CCN(Cc2nc3ccccc3[nH]2)[C@@H]2CS(=O)(=O)C[C@@H]21 , state its measured Percent Effect.
output: -2.19

input: Using the record for Cc1cc(C)c(CNC(=O)NCC(O)COc2ccccc2)c(=O)[nH]1 (stereo unspecified) , state its measured Percent Effect.
output: 4.9

input: Using the record for Cn1ccnc1CNC(=O)N(CCCO)C1CCCc2ccccc21 (stereo unspecified) , state its measured Percent Effect.
output: -1.41

input: Using the record for CC(C)Cc1noc(CN2CCC(NC(=O)c3cccs3)CC2)n1 , state its measured Percent Effect.
output: 5.36

input: Using the record for c1ncn(CC2CN(Cc3csc(C4CCCC4)n3)CCO2)n1 (stereo unspecified) , state its measured Percent Effect.
output: -7.05

input: Using the record for Cc1nn(C)c(C)c1C1COCCN1C(=O)c1cnc(N)c(Cl)c1 (stereo unspecified) , state its measured Percent Effect.
output: 2.76

input: Using the record for CCN1CCN(CC(O)c2ccc(OC(F)(F)F)cc2)CC1 (stereo unspecified) , state its measured Percent Effect.
output: -17.6

input: Using the record for CCc1cc(N2CCSCC2)n2nc(C)c(C)c2n1 , state its measured Percent Effect.
output: 2.1

input: Using the record for COc1cc(C(C)=O)ccc1OCC(=O)N(C)Cc1cnn(C)c1 , state its measured Percent Effect.
output: -7.57

input: Using the record for CC(C)(CNC(=O)NCCOc1cccc(F)c1)C(N)=O , state its measured Percent Effect.
output: 1.82

input: Using the record for CN(CCN1CCOCC1)C(=O)CCc1cccc(Cl)c1 , state its measured Percent Effect.
output: -2.72

# credit: ChEMBL document CHEMBL3988442
